Origin of the recorded values: ChEMBL document CHEMBL4689842

Recorded Population Tubulin-Different-Phenotype (%), one value per entry.
# Tested on: HEK-293T
# METHOD SUMMARY: Multiplex assay against HEK293T;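 note: share of the cells with healthy nuclei that show this phenotype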
# Type: toxicity, cell-based
# CONDITION INFO: human, 48 h, 10 µM, compound concentration 10 uM, replicate 1
OUTCOME MEASURE: Population Tubulin-Different-Phenotype (%)

1. CCC(=O)O[C@]1(C(=O)SCF)[C@H](C)C[C@H]2[C@@H]3C[C@H](F)C4=CC(=O)C=C[C@]4(C)[C@@]3(F)[C@@H](O)C[C@@]21C [FLUTICASONE PROPIONATE] | 55
2. Nc1nc2c(c(N3CCNCC3)n1)CCC1=C2[C@@H]2CCCC[C@@H]2O1 | 96
3. CC(C)Oc1ccc(C(=O)N[C@H](CNC(=O)CN(C)C)Cc2ccc(-c3cn4cccc([C@H](C)O)c4n3)cc2)cc1Cl [GSK-923295A] | 88
4. COc1cc(N2CCC(N(C)C)CC2)ccc1Nc1ncc(Cl)c(Nc2ccccc2P(C)(C)=O)n1 | 100
5. Nc1ccc(C(=O)Nc2cccc(-c3nc(N4CCOCC4)c4oc5ncccc5c4n3)c2)cn1 | 60
6. CCc1cc2c(cc1CC)CC(NC[C@H](O)c1ccc(O)c3[nH]c(=O)ccc13)C2 | 0
7. CNC(=O)c1nn(C)c2c1C(C)(C)Cc1cnc(Nc3ccc(N4CCN(C)CC4)cc3)nc1-2 | 92
